Target: T1, rat α-CGRP (Rattus norvegicus, UniProt P01256)
T1 construct: rat α (1-37); purchased GenScript Corporation or Global Peptide Services
T1 sequence (P01256 83-119 limits assumed): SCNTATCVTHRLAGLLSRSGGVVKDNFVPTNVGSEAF
Assay: Biacore SPR affinity of Fab fragments to N-biotinylated rat α-CGRP on SA chip
Format: binding
Conditions: 37° C., screening mode except underlined values

molecule | α-rat koff [s⁻¹]
M48: G1 variant; L1 R28N; L2 G50A L56T; H2 E54K A57N S58L; HC-FW3 L99T A100V (antibody, V domains shown) VH: EVQLVESGGGLVQPGGSLRLSCAASGFTFSNYWISWVRQAPGKGLEWVAEIRSKSDNLATHYAEAVKGRFTISRDNAKNSLYLQMNSLRAEDTAVYYCTVYFDYGLAIQNYWGQGTLVTVSS VL: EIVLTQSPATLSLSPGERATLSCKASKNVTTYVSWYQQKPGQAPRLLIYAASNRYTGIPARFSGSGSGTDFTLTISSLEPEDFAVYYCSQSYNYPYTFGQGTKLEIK | 0.0343
M23: G1 variant; L1 R28G; HC-FW3 L99T A100V (antibody, V domains shown) VH: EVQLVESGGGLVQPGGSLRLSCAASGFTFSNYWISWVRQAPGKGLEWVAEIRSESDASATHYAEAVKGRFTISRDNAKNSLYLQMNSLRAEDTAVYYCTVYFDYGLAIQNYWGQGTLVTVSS VL: EIVLTQSPATLSLSPGERATLSCKASKGVTTYVSWYQQKPGQAPRLLIYGASNRYLGIPARFSGSGSGTDFTLTISSLEPEDFAVYYCSQSYNYPYTFGQGTKLEIK | 0.000799
M26: G1 variant; L1 R28N; H2 A57G; HC-FW3 L99T A100V (antibody, V domains shown) VH: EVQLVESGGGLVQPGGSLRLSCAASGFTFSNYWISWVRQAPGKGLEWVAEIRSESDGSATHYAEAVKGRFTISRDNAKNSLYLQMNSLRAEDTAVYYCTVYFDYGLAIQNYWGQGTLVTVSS VL: EIVLTQSPATLSLSPGERATLSCKASKNVTTYVSWYQQKPGQAPRLLIYGASNRYLGIPARFSGSGSGTDFTLTISSLEPEDFAVYYCSQSYNYPYTFGQGTKLEIK | 0.000924
M54: G1 variant; L1 R28N T30A; L2 G50A; H2 E54K A57N S58P; HC-FW3 L99T A100V (antibody, V domains shown) VH: EVQLVESGGGLVQPGGSLRLSCAASGFTFSNYWISWVRQAPGKGLEWVAEIRSKSDNPATHYAEAVKGRFTISRDNAKNSLYLQMNSLRAEDTAVYYCTVYFDYGLAIQNYWGQGTLVTVSS VL: EIVLTQSPATLSLSPGERATLSCKASKNVATYVSWYQQKPGQAPRLLIYAASNRYLGIPARFSGSGSGTDFTLTISSLEPEDFAVYYCSQSYNYPYTFGQGTKLEIK | 0.00216
M71: G1 variant; L1 R28N T30G; L2 L561; H2 E54K A57Y; HC-FW3 L99T A100V (antibody, V domains shown) VH: EVQLVESGGGLVQPGGSLRLSCAASGFTFSNYWISWVRQAPGKGLEWVAEIRSKSDYSATHYAEAVKGRFTISRDNAKNSLYLQMNSLRAEDTAVYYCTVYFDYGLAIQNYWGQGTLVTVSS VL: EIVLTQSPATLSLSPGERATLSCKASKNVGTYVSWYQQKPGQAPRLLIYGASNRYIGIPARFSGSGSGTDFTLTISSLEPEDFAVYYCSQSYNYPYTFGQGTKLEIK | 0.00212
M33: G1 variant; L1 R28N T30G; H2 E54K A57N S58G; HC-FW3 L99T A100V (antibody, V domains shown) VH: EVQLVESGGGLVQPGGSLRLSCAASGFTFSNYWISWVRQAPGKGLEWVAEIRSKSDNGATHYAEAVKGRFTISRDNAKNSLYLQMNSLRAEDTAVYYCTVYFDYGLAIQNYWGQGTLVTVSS VL: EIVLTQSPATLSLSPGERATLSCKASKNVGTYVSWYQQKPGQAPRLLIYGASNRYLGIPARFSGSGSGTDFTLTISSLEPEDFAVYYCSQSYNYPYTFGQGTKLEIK | 0.00922
M57: G1 variant; L1 R28N T30D; L2 L56S; H2 E54K A57N S58E; HC-FW3 L99T A100V (antibody, V domains shown) VH: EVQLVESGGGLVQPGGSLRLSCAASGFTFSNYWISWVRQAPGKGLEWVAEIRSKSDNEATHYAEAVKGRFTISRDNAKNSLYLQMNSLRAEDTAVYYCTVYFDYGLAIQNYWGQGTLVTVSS VL: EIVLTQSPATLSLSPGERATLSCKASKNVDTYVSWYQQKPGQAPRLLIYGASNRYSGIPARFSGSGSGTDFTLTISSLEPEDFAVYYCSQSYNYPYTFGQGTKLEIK | 0.0104
M84: G1 variant; L1 R28N T30V; L2 A51H L56T; H2 E54N A57N; HC-FW3 L99T A100V (antibody, V domains shown) VH: EVQLVESGGGLVQPGGSLRLSCAASGFTFSNYWISWVRQAPGKGLEWVAEIRSNSDNSATHYAEAVKGRFTISRDNAKNSLYLQMNSLRAEDTAVYYCTVYFDYGLAIQNYWGQGTLVTVSS VL: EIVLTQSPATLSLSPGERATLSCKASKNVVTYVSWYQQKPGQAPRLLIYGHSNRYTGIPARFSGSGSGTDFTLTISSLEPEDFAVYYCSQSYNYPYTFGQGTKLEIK | 0.0176
